# experimentDescription: Pharmacokinetics in Sprague Dawley rats (plasma and brain concentrations, PK parameters)
# Assay type: in vivo
# conditionContext: Sprague Dawley, rat, brain homogenate, iv, 3 mg/kg, Rat (Sprague Dawley) iv 3 mg/kg (IVB); brain homogenate 1:2 in PBS; 0.25 h; Group 1, Group 2; read-out: brain Detected Conc.
# Experimental: Pharmacokinetics for I-127, I-172 and I-210 were determined in Sprague Dawley rats or CD-1 mice by dosing intravenous (IV), subcutaneous (SC) or per oral (PO) using facility SOPs and sampling plasma at required time points. […] Compounds were extracted from plasma, injected on reverse phase HPLC, eluted with a gradient from 5% to 95% acetonitrile in water and quantified by mass spectrometry with internal standard. […]

molecule	concentration at 0.25 h (ng/mL)
O=C1CCC(N2C(=O)c3cccc(NCCOCCOCCNCc4ccc(-n5cc(NC(=O)c6coc(-c7ccnc(NCC8CC8)c7)n6)c(C(F)F)n5)cc4)c3C2=O)C(=O)N1 (stereo not shown)	13.2

----------
# system: IRAK4 (Homo sapiens)
# Sequence (Q9NWZ3 1-460): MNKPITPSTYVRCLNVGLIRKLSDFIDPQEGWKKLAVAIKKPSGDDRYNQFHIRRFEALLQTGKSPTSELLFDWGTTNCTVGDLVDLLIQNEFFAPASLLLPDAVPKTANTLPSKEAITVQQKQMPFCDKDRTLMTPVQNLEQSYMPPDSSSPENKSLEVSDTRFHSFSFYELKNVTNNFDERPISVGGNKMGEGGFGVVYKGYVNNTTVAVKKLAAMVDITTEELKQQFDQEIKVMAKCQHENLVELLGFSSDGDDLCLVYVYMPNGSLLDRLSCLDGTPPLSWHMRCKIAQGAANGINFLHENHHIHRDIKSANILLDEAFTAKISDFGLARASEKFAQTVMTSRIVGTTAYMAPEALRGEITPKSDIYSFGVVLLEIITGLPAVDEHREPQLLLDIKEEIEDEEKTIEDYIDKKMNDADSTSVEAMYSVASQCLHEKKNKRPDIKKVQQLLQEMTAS
# experimentDescription: OCI-LY-10 degradation assay (western blot, % IRAK4 degraded after 4 hours)
# Assay type: cell-based
# Set-up: endogenous in cells; host or cells: OCI-LY10
# conditionContext: OCI-LY10 cells, 4 hours, 1 uM compound
# Description: Compounds were reconstituted in DMSO to make stock solutions at concentration of 60 mM. THP-1 and OCI-LY10 cells were maintained in RPMI-1640 medium containing 10% FBS, 0.5 μM 2-ME or 20% FBS, 55 μM 2-ME, and 1% L-Glutamine respectively. […] The protein concentration of cell lysates was quantified with Pierce™ BCA Protein Assay Kit (Pierce, 23227). […] After incubation at 37° C. for 30 min, the absorbance of samples at 562 nm were measured with EnVision Plate Reader. […]

compound	OCI-LY10 % IRAK4 Degradation (1 uM)
O=C1CCC(N2C(=O)c3cccc(N4CCN(CCOCCOCCOCCNC(=O)c5ccc(-n6cc(NC(=O)c7coc(-c8ccnc(NCC9CC9)c8)n7)c(C(F)F)n6)cc5)CC4)c3C2=O)C(=O)N1 (centres unmarked)	A (>50% degradation)
NC(=O)c1nn(-c2ccc(CNCCOCCOCCCc3cccc4c3C(=O)N(C3CCC(=O)NC3=O)C4=O)cc2)cc1NC(=O)c1coc(-c2ccnc(NCC(F)(F)F)c2)n1 (centres unmarked)	A (>50% degradation)
O=C1CCC(N2C(=O)c3cccc(OCCc4cnnn4CCOCCOCCNCc4ccc(-n5cc(NC(=O)c6coc(-c7ccnc(NCC8CC8)c7)n6)c(C(F)F)n5)cc4)c3C2=O)C(=O)N1 (centres unmarked)	A (>50% degradation)

Source listed as patent US10874743B2.
